TARGET SYSTEM: Autotaxin (Homo sapiens, UniProt Q13822)
Construct: from tissue; host or cells: pooled human plasma
EXPERIMENTAL DETAILS: LPA formation in pooled human plasma (ex vivo autotaxin inhibition)
Format: biochemical
CONDITION DESCRIPTION: 2 hours incubation, LPA 20:4 by LC/MS/MS, read-out: LPA formation (20:4) (IC50)
pIC50: −log10 of the molar value.
READOUT TYPE: pIC50

**Q:** # input compound: "CCc1nn2c(C)cc(N3CC4(C3)CN(S(C)(=O)=O)C4)cc2c1N(C)c1nc(-c2ccc(F)cc2)c(C#N)s1" ; wanted: its pIC50
**A:** 6.30 to 7.00

**Q:** I am curious: what pIC50 value has been reported for "Cc1cc(N2CCC(N3CC(O)C3)CC2)cc2c(N(C)c3nc(-c4ccc(F)cc4)c(C#N)s3)c(C3CC3)nn12" ?
**A:** 6.30 to 7.00

**Q:** Which value of pIC50 has been reported for CCc1nn2c(C)cc(N3CC4(CN(C(=O)[C@@H]5COC[C@H]5O)C4)C3)cc2c1N(C)c1nc(-c2ccc(F)cc2)c(C#N)s1 (stereo in doubt) in the records?
**A:** 6.30 to 7.00

* * *

TARGET SYSTEM: Autotaxin (Rattus norvegicus, UniProt Q64610)
Construct: from tissue; host or cells: SD rats in vivo; plasma sampled after a single oral dose
EXPERIMENTAL DETAILS: Pharmacodynamics: LPA 18:2 inhibition in plasma of SD rats after oral dose
CONDITION DESCRIPTION: single oral dose, LPA18:2 inhibition vs plasma concentration of compound, read-out: In vivo rat IC50 (LPA 18:2) (converted)
For each entry below, report its IC50 value.
Quote the value and follow it with the unit of measurement.

**Q:** Query: IC50; subject: "[2H]c1c(F)c(N2CCN(CC(=O)N3CC(O)C3)CC2)cc2c(N(C)c3nc(-c4ccc(F)cc4)c(C#N)s3)c(CC)nn12"
**A:** 48.6 nM

**Q:** Reported IC50 for "CCc1nn2cc(F)c(N3CCN(CC(=O)N4CC[C@@H](O)C4)CC3)cc2c1N(C)c1nc(-c2ccc(F)cc2)c(C#N)s1" : what is it?
**A:** 10 nM

**Q:** Value lookup for IC50; key = "CCc1nc2c(C)cc(N3CCN(CC(=O)N4CC(O)C4)CC3)cn2c1N(C)c1nc(-c2ccc(F)cc2)c(C#N)s1"
**A:** 48.3 nM

* * *

EXPERIMENTAL DETAILS: Metabolic stability in liver microsomes
Type: in vitro ADME
CONDITION DESCRIPTION: compound 1 μM
Record form. Attribute: metabolic stability (halftime in minutes), Human. Fill in for each entry.
Numbers only here, please. The scale is min.

**Q:** Recorded metabolic stability (halftime in minutes), Human for "CCc1nc2c(C)cc(N3CCN(CC(=O)N4CC(O)C4)CC3)cn2c1N(C)c1nc(-c2ccc(F)cc2)c(C#N)s1" , please?
**A:** 10.8

**Q:** What value of measured metabolic stability (halftime in minutes), Human is listed for "CCc1nn2cc(F)c(N3CC4(CN(C(=O)[C@H]5CCOC5)C4)C3)cc2c1N(C)c1nc(-c2ccc(F)cc2)c(C#N)s1" ?
**A:** 13.4

**Q:** Quick check: metabolic stability (halftime in minutes), Human of "CCc1nn2cc(F)c(N3CCN(CC(=O)N4CC(O)C4)CC3)cc2c1N(C)c1nc(-c2ccc(F)cc2)c(C#N)s1" ?
**A:** 24.5

**Q:** Return reported metabolic stability (halftime in minutes), Human; argument: "CCn1nc2ncc(N3CC4(CN(C(=O)C5CCOCC5)C4)C3)cc2c1N(C)c1nc(-c2ccc(F)cc2)c(C#N)s1"
**A:** 75.4
